- EXPERIMENTAL TARGET: h-CB2R (Homo sapiens, UniProt P34972)
- Sequence (P34972 whole entry): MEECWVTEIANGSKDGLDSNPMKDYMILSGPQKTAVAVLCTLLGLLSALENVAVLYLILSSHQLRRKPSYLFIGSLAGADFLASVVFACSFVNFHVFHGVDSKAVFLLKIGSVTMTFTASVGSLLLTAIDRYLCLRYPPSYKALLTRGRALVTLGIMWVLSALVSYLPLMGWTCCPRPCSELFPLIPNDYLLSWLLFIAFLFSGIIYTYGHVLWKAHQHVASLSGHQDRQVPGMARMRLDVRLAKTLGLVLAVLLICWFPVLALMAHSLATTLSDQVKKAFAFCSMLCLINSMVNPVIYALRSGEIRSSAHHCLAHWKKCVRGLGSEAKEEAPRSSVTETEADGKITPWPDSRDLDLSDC
- CONDITION LABEL: classification from β-arrestin 2 (and cAMP) assays
OBSERVABLE: functional activity at CB2R

[[record]]
compound = "CC1CCC(NC(=O)c2cc3cccnc3n(CCN3CCOCC3)c2=O)CC1 (stereo not shown) [A1]"
observable = "functional activity at CB2R"
result = "agonists"

[[record]]
compound = "CC1CCC(NC(=O)c2cc3cccnc3n(CCCCO)c2=O)CC1 (stereo not shown) [Compound 5]"
observable = "functional activity at CB2R"
result = "agonists"

[[record]]
compound = "CC1CCC(NC(=O)c2cc3cccnc3n(CCCCF)c2=O)CC1 (stereo not shown) [Compound 14]"
observable = "functional activity at CB2R"
result = "agonists"

[[record]]
compound = "CC1CCC(NC(=O)c2cc3cccnc3n(Cc3ccc(F)cc3)c2=O)CC1 (stereo not shown) [A2]"
observable = "functional activity at CB2R"
result = "agonists"


----------
- EXPERIMENTAL TARGET: UniProtKB P34972
- PROCEDURE DETAILS: CB2R competitive radioligand binding assay
- CONDITION LABEL: selectivity ratio
OBSERVABLE: Ki(CB1)/Ki(CB2)

Take a look at these entries with their results.
[[record]]
compound = "CCOC(=O)CCCn1c(=O)c(C(=O)NC2CCC(C)CC2)cc2cccnc21 (stereo not drawn)"
observable = "Ki(CB1)/Ki(CB2)"
result = ">160"

[[record]]
compound = "COC(=O)CCCCn1c(=O)c(C(=O)NC2CCC(C)CC2)cc2cccnc21 (stereo not drawn)"
observable = "Ki(CB1)/Ki(CB2)"
result = ">369"

[[record]]
compound = "C[C@H]1CC[C@H](NC(=O)c2cc3cc(-c4ccco4)cnc3n(Cc3ccc(F)cc3)c2=O)CC1 [Compound 22-trans]"
observable = "Ki(CB1)/Ki(CB2)"
result = ">106"

[[record]]
compound = "COc1ccc(-c2cnc3c(c2)cc(C(=O)NC2CCC(C)CC2)c(=O)n3CCN2CCOCC2)cc1 (stereo not drawn)"
observable = "Ki(CB1)/Ki(CB2)"
result = ">6802"

[[record]]
compound = "CC1CCC(NC(=O)c2cc3cccnc3n(CCC(=O)O)c2=O)CC1 (stereo not drawn)"
observable = "Ki(CB1)/Ki(CB2)"
result = ">7"

[[record]]
compound = "C[C@H]1CC[C@@H](NC(=O)c2cc3cc(-c4ccco4)cnc3n(Cc3ccc(F)cc3)c2=O)CC1 [Compound 22-cis]"
observable = "Ki(CB1)/Ki(CB2)"
result = "15 022"


Look at each compound and report its Ki(CB1)/Ki(CB2).
1. CC1CCC(NC(=O)c2cc3cccnc3n(CCCCCO)c2=O)CC1 (stereo not drawn)
2. CC1CCC(NC(=O)c2cc3cccnc3n(CCCCO)c2=O)CC1 (stereo not drawn)
3. CCOC(=O)CCn1c(=O)c(C(=O)NC2CCC(C)CC2)cc2cccnc21 (stereo not drawn)
4. CC1CCC(NC(=O)c2cc3cc(-c4ccc(F)cc4)cnc3n(Cc3ccc(F)cc3)c2=O)CC1 (stereo not drawn)
5. CC1CCC(NC(=O)c2cc3cccnc3n(CCCO)c2=O)CC1 (stereo not drawn)
6. CC1CCC(NC(=O)c2cc3cccnc3n(CCCCCCO)c2=O)CC1 (stereo not drawn)
7. CC1CCC(NC(=O)c2cc3cccnc3n(CCCCC(=O)O)c2=O)CC1 (stereo not drawn)
8. CC1CCC(NC(=O)c2cc3cccnc3n(CCCC(=O)O)c2=O)CC1 (stereo not drawn)

1. >2778
2. >187
3. >57
4. >4608
5. >77
6. >554
7. >7
8. >4

Param readout= Ki(CB1)/Ki(CB2); system= UniProtKB P34972; entry= CC1CCC(NC(=O)c2cc3cccnc3n(CCO)c2=O)CC1 (stereo not drawn) ; returns value.
>5
